Target: T1, rat-his
T1 construct: soluble analyte of the Biacore runs; also called rSCRx91-his; rBMPR1B-CHis
T1 chain: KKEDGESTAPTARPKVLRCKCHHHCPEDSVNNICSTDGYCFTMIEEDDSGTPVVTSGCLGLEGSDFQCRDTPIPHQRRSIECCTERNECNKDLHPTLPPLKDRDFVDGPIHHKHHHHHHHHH
Assay: Biacore
Measured Kd, listed per entry for reference.

binder="SC91.129 (antibody, V domains shown, copies: 2 + 2) VH: QVQLQQPGAELVKPGASVKLSCKASGYTFTNYWMQWVKQRPGQGLEWIGEIDPSDRYTLYNQKFKDKATLTVDTSSSTAYMQLSSLTSEDSAVYYCARFGYYVDYWGQGTTLTVSS VL: DAVMTQSPLSLPVSLGDQASISCRSSQSLVHSTGNTYLHWYLQKPGQSPKLLIYKVSNRFSGVPDRFSGSGSGTDFTLKISRVEAEDLGVYFCSQTTHVPFTFGSGTKLEIK" measuredendpoint=Kd valuereported="0.561 nM"
binder="SC91.149 (antibody, V domains shown) VH: QVQLLQPGAELVKPGSSVKVSCKASGYTFTNYWMQWVKQRPGQGLEWIGEIDPSDTYTLYNQKFKGKATLTVDTSSSTAYMQLSSLTSEDSAVYYCARFGYYVDYWGQGTTLTVSS VL: DVVMTQTPLSLPVSLGDQASISCRSSQSLVHSTGNTYFHWYLQKPGQSPELLIYKVSNRFSGVPDRFRGSGSGTDFTLKISRVEAEDLGVYFCSQSTHVPFTFGSGTKLEIK" measuredendpoint=Kd valuereported="< 0.1 nM"
binder="SC91.187 (antibody, V domains shown) VH: QVQLQQPGPEFVKPGASVKLSCKASGYTFTSYWVQWVKQRPGQGLEWIGEIDPSDNYTLYNQNFKGKATLTVDTSSSTAYMQLSSLTSEDSAVYYCARFGFYVDYWGQGTTLTVSS VL: DVVMTQTPLSLPVSLGEQASISCRSSQSLVHSTGNTYLHWYLQKPGQSPKLLIYKVSNRFSGVPDRFSGSGSGTDFTLKISRVEAEDLGVYFCSQSTHVPFTFGSGTKLEIK" measuredendpoint=Kd valuereported="3.25 nM"

Pending binder:
Prompt: # get_value(readout='Kd', item= SC91.172 (antibody, V domains shown) VH: QVQLQQPGADLVKPGTSVKLSCKASGYTFTSYWMQWVKQRPGQGLEWIGEIDPSDTYTMYNQKFKGKATLTVDTSSSTAYMQLSSLTSEDSAVYYCARFGYYVDYWGQGTTLTVSS VL: DVVMTQTPLSLPVSLGDQASISCRSSQSLVHSTGNTYLHWYLQKAGQSPKLLIYKVSNRFSGVPDRFSGSGSGTDFTLKISRVEAEDLGVYFCSQSTHVPFTFGSGTKLEIK )
Completion: 1.18 nM
